# System: mammary gland epithelial cell line MCF-10a
# TEST METHOD NOTES: Cytotoxicity toward normal cells MCF-10a
# Assay type: cell-based, human
# EXPERIMENTAL PARAMETERS: MCF-10a normal cell line
READOUT NAME: IC50 (µM)
# value in µM; strip the unit string

Prompt: Identify the measured IC50 of COc1cc(Nc2nccc(Nc3ccc4[nH]ncc4c3)n2)cc(OC)c1OC for mammary gland epithelial cell line MCF-10a.
Completion: 29.5

###

// reported melting point for each item listed

Prompt: Sample O=S(=O)(Nc1nccs1)c1ccc(Nc2ncc(F)c(Nc3ccc4[nH]ncc4c3)n2)cc1 — what was its melting point?
Completion: 285 to 287 °C

Prompt: Any idea what its melting point is? The compound is NS(=O)(=O)c1ccc(Nc2ncc(F)c(Nc3ccc4[nH]ncc4c3)n2)cc1
Completion: 303 to 305 °C

Prompt: Query: melting point; subject: O=S(=O)(Nc1nccs1)c1ccc(Nc2nccc(Nc3ccc4[nH]ncc4c3)n2)cc1
Completion: 211 to 213 °C

Prompt: Need melting point of O=S(=O)(Nc1ncccn1)c1ccc(Nc2ncc(F)c(Nc3ccc4[nH]ncc4c3)n2)cc1 , thanks.
Completion: 343 to 345 °C

Prompt: Looking for the measured melting point of COc1cc(Nc2ncc(F)c(Nc3ccc4[nH]ncc4c3)n2)cc(OC)c1OC , can you help?
Completion: 352 to 354 °C

Others:
Prompt: Which value of melting point has been reported for NS(=O)(=O)c1cccc(Nc2ncc(F)c(Nc3ccc4[nH]ncc4c3)n2)c1 in the records?
Completion: 286 to 288 °C

###

# Tested on: lung cancer cells (A549)
# TEST METHOD NOTES: MTT cytotoxicity assay, A549
# Type: cell-based, human
# EXPERIMENTAL PARAMETERS: 48 h
READOUT NAME: IC50

Prompt: Entry O=S(=O)(Nc1ncccn1)c1ccc(Nc2ncc(F)c(Nc3ccc4[nH]ncc4c3)n2)cc1 has what IC50?
Completion: 3.2 µM
